Recorded measurements of pIC50, one per entry
- TEST TARGET: T1, human neuropeptide Y Y2 receptor on SMS-MSN cells (human, UniProt P49146 1-381)
- T1 construct: whole, on cells; also called NPY Y2 receptor; SMS-MSN (Y2)
- T1 sequence (looked up): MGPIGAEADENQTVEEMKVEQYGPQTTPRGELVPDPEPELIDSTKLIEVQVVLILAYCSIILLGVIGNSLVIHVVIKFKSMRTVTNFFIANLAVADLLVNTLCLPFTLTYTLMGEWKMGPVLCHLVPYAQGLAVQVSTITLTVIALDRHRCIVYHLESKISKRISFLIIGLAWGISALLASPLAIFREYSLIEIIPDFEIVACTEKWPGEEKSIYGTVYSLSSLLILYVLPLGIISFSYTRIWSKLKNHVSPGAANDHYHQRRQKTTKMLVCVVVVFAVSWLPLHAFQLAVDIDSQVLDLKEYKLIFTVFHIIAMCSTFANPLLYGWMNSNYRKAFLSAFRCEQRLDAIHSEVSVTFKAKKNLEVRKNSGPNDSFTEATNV
- ASSAY NOTES: competition with 30 pM [125I]NPY on SMS-MSN cells (human Y2), filtration
pIC50: −log10 of the molar value.
RESULT TYPE: pIC50

binder="Ac-ARHYLNLLTRQRY-NH2 [Ac[A24,L28,L31]NPY24-36]" observed_value=7.72
binder="Ac-LRHYLNALTRQRY-NH2 [Ac[L28,A30,L31]NPY24-36]" observed_value=8.20
binder="Ac-LRAYLNLLTRQRY-NH2 [Ac[A26,L28,L31]NPY24-36]" observed_value=7.20
binder="Ac-ARAALNAATRQRY-NH2 [Ac[A24,26,27,30,31,L28]NPY24-36]" observed_value=8.50
